System: rodent lifetime carcinogenesis bioassay, tumor incidence TD50
TEST PROTOCOL: carcinogenic potency in animals, long-term in vivo studies, CPDB compilation (AID 1745844)
STUDY CONDITIONS: mouse; strain CDF1; males; in feed; site: blood vessels; lesion: several types; types named in the paper; dosed 84 weeks; study length 84 weeks
READOUT NAME: TD50

What does the record list as TD50 for Nc1ccc2nc3ccccn3c2n1 ?
23.9 mg/kg/day

* * *

Test system: rodent lifetime carcinogenesis bioassay, tumor incidence TD50
TEST PROTOCOL: carcinogenic potency in animals, long-term in vivo studies, CPDB compilation (AID 1745844)
STUDY CONDITIONS: rat; strain Fischer 344; males; inhaled; site: mammary gland; lesion: fibroadenoma; dosed 104 weeks; study length 104 weeks
READOUT NAME: TD50

- c1ccc2ccccc2c1: 133 mg/kg/day

Please examine the following record next.
What does the record list as TD50 for C=CC(=C)C ?
655 mg/kg/day
